- studyTarget: Human immunodeficiency virus type 1 integrase (Human immunodeficiency virus 1)
- Sequence (Q7ZJM1 whole entry): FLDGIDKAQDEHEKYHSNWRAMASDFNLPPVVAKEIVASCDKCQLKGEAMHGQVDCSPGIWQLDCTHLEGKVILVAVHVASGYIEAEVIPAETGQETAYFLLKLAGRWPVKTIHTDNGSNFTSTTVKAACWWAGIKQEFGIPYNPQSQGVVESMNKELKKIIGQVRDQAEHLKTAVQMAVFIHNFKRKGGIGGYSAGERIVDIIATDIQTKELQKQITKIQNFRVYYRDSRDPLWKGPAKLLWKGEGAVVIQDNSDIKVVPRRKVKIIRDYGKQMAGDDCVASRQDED
- methodSummary: Inhibition of wild-type HIV1 integrase strand transfer activity
assayMetric: IC50

Guide cases for IC50, answers given:
>  <smilesRecord>
Cc1cc(O)c(C(=O)/C=C/c2ccc(F)cc2)c(=O)o1

>  <studyTarget>
Human immunodeficiency virus type 1 integrase (Human immunodeficiency virus 1)

>  <reading>
> 100 µM

$$$$
>  <smilesRecord>
COc1ccc(/C=C/C=C/C2=[O+][B-](F)(F)Oc3cc(C)oc(=O)c32)cc1

>  <studyTarget>
Human immunodeficiency virus type 1 integrase (Human immunodeficiency virus 1)

>  <reading>
4 µM

$$$$

Prompt: // Input: Cc1cc2c(c(=O)o1)C(/C=C/c1ccc(N(C)C)s1)=[O+][B-](F)(F)O2 . Output its IC50 only.
Response: > 100 µM

Prompt: Input Cc1cc(O)c(C(=O)/C=C/C=C2/N(C)c3ccccc3C2(C)C)c(=O)o1 , output reported IC50.
Response: > 100 µM

Prompt: Determine its reported IC50: COc1ccc(Br)cc1/C=C/C1=[O+][B-](F)(F)Oc2cc(/C=C/c3ccc(N(C)C)cc3)oc(=O)c21
Response: > 100 µM

Prompt: Quote IC50 reported for COc1ccc(/C=C/C=C/C(=O)c2c(O)cc(C)oc2=O)cc1 please.
Response: 39 µM

Prompt: Please list IC50 recorded for the compound Cc1cc2c(c(=O)o1)C(/C=C/C=C/c1ccc(N(C)C)cc1)=[O+][B-](F)(F)O2
Response: 100 µM

Prompt: // Input: COc1ccc(/C=C/C(=O)c2c(O)cc(/C=C/c3ccc(N(C)C)cc3)oc2=O)cc1 . Output its IC50 only.
Response: > 100 µM

Prompt: Kindly indicate its recorded IC50. Item: CN(C)c1ccc(/C=C/C2=[O+][B-](F)(F)Oc3cc(/C=C/c4ccc(N(C)C)cc4)oc(=O)c32)cc1
Response: > 100 µM
